Measured activity (relative to I-SceI) of individual entries
# Test system: FAD2_T03_Left_C40 + FAD2_T03_Right_C40 TALEN pair
# PROTOCOL_DESCRIPTION: cell_activity
# RUN_PARAMETERS: yeast reporter cleavage

# RESIDUE_SEQUENCE, activity (relative to I-SceI)
data = [
    ("ATTTCTCATGGAAAATAAGCCATCGCCGCCATCACTCCAACACAGGTTCCCTTGACCGTGATGAAGTGTTTGTCCC (double strand) [FAD2 Target 4]", 0.51),
    ("GCCACCACCTACTTCCACCTCCTTCCTCAACCCTTTTCCCTCATTGCATGGCCAATCT (double strand) [FAD2 Target 1]", 0),
    ("ACATTGCCACCACCTACTTCCACCTCCTTCCTCAACCCTTTTCCCTCATTGCATGGCCAATCT (double strand) [FAD2 Target 2]", 0),
    ("CTCATGGAAAATAAGCCATCGCCGCCATCACTCCAACACAGGTTCCCTTGACCGTGATGAAGTGTTTGTCCC (double strand) [FAD2 Target 3]", 0.63),
]

---

# Tested on: FAD2_T01_Left_C11 + FAD2_T01_Right_C11 TALEN pair
# PROTOCOL_DESCRIPTION: cell_activity
# RUN_PARAMETERS: yeast reporter cleavage
# Lookup of reported activity (relative to I-SceI) keyed by entry

# RESIDUE_SEQUENCE, activity (relative to I-SceI)
data = [
    ("ATTTCTCATGGAAAATAAGCCATCGCCGCCATCACTCCAACACAGGTTCCCTTGACCGTGATGAAGTGTTTGTCCC (double strand) [FAD2 Target 4]", 0),
    ("GCCACCACCTACTTCCACCTCCTTCCTCAACCCTTTTCCCTCATTGCATGGCCAATCT (double strand) [FAD2 Target 1]", 0.73),
    ("ACATTGCCACCACCTACTTCCACCTCCTTCCTCAACCCTTTTCCCTCATTGCATGGCCAATCT (double strand) [FAD2 Target 2]", 0.87),
    ("CTCATGGAAAATAAGCCATCGCCGCCATCACTCCAACACAGGTTCCCTTGACCGTGATGAAGTGTTTGTCCC (double strand) [FAD2 Target 3]", 0),
]

---

# Test system: FAD2_T03_Left_C11 + FAD2_T03_Right_C11 TALEN pair
# PROTOCOL_DESCRIPTION: cell_activity
# RUN_PARAMETERS: yeast reporter cleavage
Measured activity (relative to I-SceI), listed per entry for reference.

# RESIDUE_SEQUENCE, activity (relative to I-SceI)
data = [
    ("ACATTGCCACCACCTACTTCCACCTCCTTCCTCAACCCTTTTCCCTCATTGCATGGCCAATCT (double strand) [FAD2 Target 2]", 0),
    ("GCCACCACCTACTTCCACCTCCTTCCTCAACCCTTTTCCCTCATTGCATGGCCAATCT (double strand) [FAD2 Target 1]", 0),
    ("ATTTCTCATGGAAAATAAGCCATCGCCGCCATCACTCCAACACAGGTTCCCTTGACCGTGATGAAGTGTTTGTCCC (double strand) [FAD2 Target 4]", 0.53),
    ("CTCATGGAAAATAAGCCATCGCCGCCATCACTCCAACACAGGTTCCCTTGACCGTGATGAAGTGTTTGTCCC (double strand) [FAD2 Target 3]", 0.65),
]
